# Test system: NCI/ADR-RES ovarian
# run-description: NCI tumour cell line growth inhibition, 48 h
Some compounds, each annotated with its measured TGI.

>  <compound>
Cc1ccccc1NC(=O)c1sc2nc3c(cc2c1N)C(=O)CCC3

>  <TGI>
> 100 µM

$$$$
>  <compound>
CCCC1C(C#N)(C#N)C(C#N)=C(N)C1(C)C(C)=O (stereo not given)

>  <TGI>
> 100 µM

$$$$
>  <compound>
CC(=O)OC1C(O)C(C)OC(OC(=O)C2CCC3C(C2)OC2(CC(OC(=O)/C=C/c4ccccc4)C(C)CO2)C32CO2)C1OC1OC(C)C(O)C(O)C1O (stereo not given)

>  <TGI>
146 µM

$$$$
>  <compound>
COc1ccc2c(c1)C(=O)c1c-2n(CCCCl)c(=O)c2cc(N(C)C)ccc12

>  <TGI>
> 100 µM

$$$$
>  <compound>
CC(C)(C)OC(=O)N1C/C=C\C(=O)C2(OCCO2)c2ccccc21

>  <TGI>
> 100 µM

$$$$
>  <compound>
NCC(=O)CCC(=O)O

>  <TGI>
> 100 µM

$$$$
>  <compound>
Nc1ccc(-c2nc3cc(F)ccc3s2)cc1

>  <TGI>
> 100 µM

$$$$
>  <compound>
Cc1nc(N)nc(N)c1N1CCN(Cc2ccccc2)CC1

>  <TGI>
> 92.6 µM

$$$$
>  <compound>
CC1(C)CC[C@]2(C(=O)O)CC[C@]3(C)[C@H](CC[C@@H]4[C@@]5(C)CCC(=O)C(C)(C)[C@@H]5CC[C@]43C)[C@H]2[C@H]1OC(=O)C(F)(F)F

>  <TGI>
26.2 µM

$$$$
>  <compound>
Cc1nn(-c2ccccc2)c2c1N=C(C(=O)O)CC(c1ccccc1)=N2

>  <TGI>
> 10 µM

$$$$

====

# System: UACC-62 melanoma
# run-description: NCI tumour cell line growth inhibition, 48 h

>  <molecule>
CCCCc1nc2cc(/C=C/C(=O)NO)ccc2n1CCN(CC)CC

>  <tested-target>
UACC-62 melanoma

>  <sign>
=

>  <TGI, µM>
0.743

$$$$
>  <molecule>
C=C1C(=O)O[C@H]2[C@H]1CC/C(COC(=O)C(=O)c1cn(C)c3ccc(OC)cc13)=C\CC[C@@]1(C)O[C@@H]21

>  <tested-target>
UACC-62 melanoma

>  <sign>
=

>  <TGI, µM>
7.08

$$$$
>  <molecule>
Cc1ccc(CC(=O)Nc2ccc(NC(=O)CNC(=O)/C=C/c3ccc(-c4ccccc4)cc3)cc2C(=O)c2ccccc2)cc1

>  <tested-target>
UACC-62 melanoma

>  <sign>
=

>  <TGI, µM>
30.8

$$$$
>  <molecule>
O=C1CCC2CCOc3ccc(O)c1c32 (stereo not given)

>  <tested-target>
UACC-62 melanoma

>  <sign>
>

>  <TGI, µM>
100

$$$$
>  <molecule>
CC(C)(C)OC(=O)NCCNC(=O)CN(CC(=O)O)C1CCCCC1N(CC(=O)O)CC(=O)O (stereo not given)

>  <tested-target>
UACC-62 melanoma

>  <sign>
>

>  <TGI, µM>
100

$$$$
>  <molecule>
COc1ccc2c(c1)C(=O)c1c-2n(CCCCl)c(=O)c2cc(N(C)C)ccc12

>  <tested-target>
UACC-62 melanoma

>  <sign>
>

>  <TGI, µM>
100

$$$$
>  <molecule>
C/C(=N\n1c(Cc2ccccc2)n[nH]c1=O)c1ccc([N+](=O)[O-])cc1

>  <tested-target>
UACC-62 melanoma

>  <sign>
>

>  <TGI, µM>
100

$$$$
>  <molecule>
CC(CC(C)(C)[N+](C)(C)C)[N+](C)(C)C (stereo not given)

>  <tested-target>
UACC-62 melanoma

>  <sign>
>

>  <TGI, µM>
100

$$$$
>  <molecule>
COc1cccc2c1C(=O)c1c(O)c3c(c(O)c1C2=O)C[C@@](O)(/C(C)=N\O)C[C@@H]3OC1CC(N)C(O)C(C)O1 (stereo not given in full)

>  <tested-target>
UACC-62 melanoma

>  <sign>
=

>  <TGI, µM>
2.94

$$$$
>  <molecule>
Nc1ccc(-c2nc3cc(F)ccc3s2)cc1

>  <tested-target>
UACC-62 melanoma

>  <sign>
>

>  <TGI, µM>
100

$$$$

====

# System: K-562 leukemia
# run-description: NCI tumour cell line growth inhibition, 48 h

>  <compound>
CCOC(=O)O/N=C1/C(c2c(O)[nH]c3ccccc23)=Nc2ccccc21

>  <tested-target>
K-562 leukemia

>  <TGI>
> 100 µM

$$$$
>  <compound>
O=C1CCC2CCOc3ccc(O)c1c32 (stereo unspecified)

>  <tested-target>
K-562 leukemia

>  <TGI>
> 100 µM

$$$$
>  <compound>
CC(C)=CCC/C(C)=C/CC/C(C)=C/CSc1ccc(Cl)cc1C(=O)O

>  <tested-target>
K-562 leukemia

>  <TGI>
64.9 µM

$$$$
>  <compound>
CN1N(c2ccccc2)C(=O)C2=NC=C(C#N)C(=N)C21C (stereo unspecified)

>  <tested-target>
K-562 leukemia

>  <TGI>
> 100 µM

$$$$
>  <compound>
COC(=O)c1ccccc1N=Cc1ccc(N(CCC#N)S(=O)(=O)c2ccccc2)cc1

>  <tested-target>
K-562 leukemia

>  <TGI>
> 100 µM

$$$$
>  <compound>
COP1(=S)OCC2CCC[C@@H]2O1 (stereo partly specified)

>  <tested-target>
K-562 leukemia

>  <TGI>
> 100 µM

$$$$
>  <compound>
Cc1cccc(N2C(=O)C(=O)C(c3nc4ccccc4s3)C(=O)C2=O)c1C

>  <tested-target>
K-562 leukemia

>  <TGI>
> 100 µM

$$$$
>  <compound>
CS(=O)(=O)CS(=O)CS(=O)CS(=O)CC(NC(=O)CCC(N)C(=O)O)C(=O)O (stereo unspecified)

>  <tested-target>
K-562 leukemia

>  <TGI>
> 100 µM

$$$$
>  <compound>
CC1=C(c2cc(C(=O)Nc3cccc(C(F)(F)F)c3)nc(NC#N)n2)Sc2ccccc2N1

>  <tested-target>
K-562 leukemia

>  <TGI>
> 100 µM

$$$$
>  <compound>
CC(=O)OC1C(O)C(C)OC(OC(=O)C2CCC3C(C2)OC2(CC(OC(=O)/C=C/c4ccccc4)C(C)CO2)C32CO2)C1OC1OC(C)C(O)C(O)C1O (stereo unspecified)

>  <tested-target>
K-562 leukemia

>  <TGI>
2.29 µM

$$$$
>  <compound>
COc1cc(-c2coc3c(OC)c(OC4OC(COC5OC(C)C(O)C(O)C5O)C(O)C(O)C4O)c(OC)c(O)c3c2=O)cc(C)c1O (stereo unspecified)

>  <tested-target>
K-562 leukemia

>  <TGI>
34.6 µM

$$$$

====

# Test system: NCI/ADR-RES ovarian
# run-description: NCI tumour cell line growth inhibition, 48 h
# reported TGI; entries follow

>  <compound>
COc1cccc(/C=N/n2c(Cc3ccc(Cl)cc3)n[nH]c2=O)c1

>  <sign>
>

>  <TGI / µM>
88.7

$$$$
>  <compound>
CC(C)(C)n1cc(-c2ccnc(NCCNS(=O)(=O)c3cccc4ccccc34)c2)c(-c2cccc(F)c2)n1

>  <sign>
>

>  <TGI / µM>
100

$$$$
>  <compound>
C/C(=N\NC(=O)N/N=C(\C)c1ccccn1)c1ccccn1

>  <sign>
=

>  <TGI / µM>
93.6

$$$$
>  <compound>
c1csc(-c2nnc(C34CC5CC(CC(C5)C3)C4)o2)c1

>  <sign>
=

>  <TGI / µM>
57

$$$$
>  <compound>
C[C@@]12CCC[C@@](C)(C(=O)O)C1CC[C@@]13CC(=O)[C@@](CO)(CCC12)C3 (stereo not given in full)

>  <sign>
>

>  <TGI / µM>
100

$$$$

====

# Test system: A498 renal
# run-description: NCI tumour cell line growth inhibition, 48 h; in the data active = GI50 below about 0.43 µM; inactive = the rest
Outcome codes: True (active), False (inactive)

>  <compound>
CC12CCC(O)CC1CCC1C2CCC2(C)C(C3=CC(=O)OC3)CCC12 (stereo not drawn)

>  <qualitative-label>
False

$$$$
>  <compound>
COc1cc2c3c(n(C)c(=O)c2cc1OC)-c1cc2c(cc1/C3=C\[C@@H](N)CCCCN)OCO2

>  <qualitative-label>
False

$$$$
>  <compound>
O=C(Nc1ccccc1F)c1ccc(NC2=C(Cl)C(=O)N(Cc3ccccc3)C2=O)cc1

>  <qualitative-label>
False

$$$$
>  <compound>
COC(=O)[C@H](Cc1ccccc1)NC(=O)[C@@H](OC)[C@@H]1Cc2cc3cc(OC4CC(OC5CC(O)C(O)C(C)O5)C(O)C(C)O4)c(C)c(O)c3c(O)c2C(=O)[C@H]1OC1CC(OC2CC(OC3CC(C)(O)C(O)C(C)O3)C(O)C(C)O2)C(O)C(C)O1 (stereo partly drawn)

>  <qualitative-label>
True

$$$$
>  <compound>
CC(=O)OC1=C2C(CC3C4CC=C5CC(OC(C)=O)CCC5(C)C4CCC23C)C2C(=O)N(Cc3ccccc3)C(=O)C2C1 (stereo not drawn)

>  <qualitative-label>
False

$$$$
>  <compound>
COC(=O)[C@]12CC[C@@H](C)[C@H](C)[C@@H]1C1=CC[C@@H]3[C@@]4(C)C=C(O)C(=O)C(C)=C4CC[C@@]3(C)[C@]1(C)CC2

>  <qualitative-label>
False

$$$$
>  <compound>
CC1(C)CC[C@]2(C(=O)O)CC[C@]3(C)[C@H](CC[C@@H]4[C@@]5(C)CCC(=O)C(C)(C)[C@@H]5CC[C@]43C)[C@H]2[C@H]1OC(=O)C(F)(F)F

>  <qualitative-label>
False

$$$$
>  <compound>
COc1ccc2c(c1)C(=O)c1c-2n(CCCCl)c(=O)c2cc(N(C)C)ccc12

>  <qualitative-label>
False

$$$$
>  <compound>
COc1ccc(-c2[nH]ncc2-c2cc(OC)c(OC)c(OC)c2)cc1

>  <qualitative-label>
True

$$$$
>  <compound>
COc1cccc2c(Nc3ccc(C(=O)NCCN(C)C)cc3)cc(-c3ccccc3)nc12

>  <qualitative-label>
False

$$$$
>  <compound>
COc1ccc2sc3c(NCCCNCCO)nc4ccccc4c3c(=O)c2c1

>  <qualitative-label>
False

$$$$
>  <compound>
COc1cccc(C2C(C#N)=C(N)Oc3cc(OC)ccc32)c1 (stereo not drawn)

>  <qualitative-label>
True

$$$$
>  <compound>
C=C1C(=O)O[C@H]2[C@H]1CC/C(COC(=O)C(=O)c1cn(C)c3ccc(OC)cc13)=C\CC[C@@]1(C)O[C@@H]21

>  <qualitative-label>
False

$$$$
